These entries and their values trace back to patent US20260130395A1.

# test-protocol: Stability of cannabinoid compounds and Vitamin E components in Beverage 1 (AB White) by LCMSMS
# Assay type: physicochemical
# test-parameters: AB White stored at 21-25° C.; 420 days
Measured Stability of Plant-Derived Cannabinoid Compounds in AB White, 21-25° C. determines class: lower level: < 0.5 µg/mL; middle level: ≥ 0.5 µg/mL and < 3 µg/mL; upper level: ≥ 3 µg/mL

Example results:
Which of the defined bands does the recorded Stability of Plant-Derived Cannabinoid Compounds in AB White, 21-25° C. of C=C(C)[C@@H]1CCC(C)=C[C@H]1c1c(O)cc(CCC)cc1O sit within?
lower level

Would you mind doing CCCCCc1cc(O)c2c(c1)OC(C)(CCC=C(C)C)C=C2 (stereo not drawn) as well?
lower level

Would you mind doing CCCCCc1cc(O)c2c(c1)OC(C)(C)[C@@H]1CCC(C)=C[C@@H]21 [D9 THC, delta-9-tetrahydrocannabinol, reference compound] as well?
upper level

Would you mind doing CCCCCc1cc(O)c2c(c1)OC(C)(C)c1ccc(C)cc1-2 as well?
middle level

Would you mind doing CCCCCc1cc(O)c(C/C=C(\C)CCC=C(C)C)c(O)c1 as well?
upper level

Would you mind doing CCCCCc1cc2c(c(O)c1C(=O)O)[C@@H]1C=C(C)CC[C@H]1C(C)(C)O2 [D9 THCA, delta-9-tetrahydrocannabinolic acid] as well?
middle level

Further cases:
Which of the defined bands does the recorded Stability of Plant-Derived Cannabinoid Compounds in AB White, 21-25° C. of CCCc1cc(O)c2c(c1)OC(C)(C)[C@@H]1CCC(C)=C[C@@H]21 [THCV, delta-9-tetrahydrocannabivarin] sit within?
upper level

Would you mind doing CCCCCc1cc(O)c2c(c1)OC1(C)CCC3C1C2C3(C)C (stereo not drawn) as well?
middle level

Would you mind doing C=C(C)[C@@H]1CCC(C)=C[C@H]1c1c(O)cc(CCCCC)c(C(=O)O)c1O as well?
middle level

###

# test-protocol: Stability of cannabinoid compounds and Vitamin E components in Beverage 1 (AB White) by LCMSMS
# Format: physicochemical
# test-parameters: AB White stored at 8° C.; 3 days
Would you mind telling me the reported Stability of Plant-Derived Cannabinoid Compounds in AB White, 8° C. of each entry?
Numbers only, in µg/mL.

Before answering, review these 5 worked examples.
# input compound: CCCCCc1cc(O)c2c(c1)OC(C)(C)[C@@H]1CCC(C)=C[C@@H]21 [D9 THC, delta-9-tetrahydrocannabinol, reference compound] ; wanted: its Stability of Plant-Derived Cannabinoid Compounds in AB White, 8° C.
12.25

Would you mind doing C=C(C)[C@@H]1CCC(C)=C[C@H]1c1c(O)cc(CCC)cc1O as well?
0.146

Would you mind doing C=C(C)[C@@H]1CCC(C)=C[C@H]1c1c(O)cc(CCCCC)cc1O [CBD, cannabidiol, reference compound] as well?
27.96

Would you mind doing CCCCCc1cc(O)c2c(c1)OC(C)(CCC=C(C)C)C=C2 (stereo not shown) as well?
0.322

Would you mind doing CCCCCc1cc2c(c(O)c1C(=O)O)[C@@H]1C=C(C)CC[C@H]1C(C)(C)O2 [D9 THCA, delta-9-tetrahydrocannabinolic acid] as well?
0.934

# per-item lookup of Stability of Plant-Derived Cannabinoid Compounds in AB White, 8° C.; items listed below
1. CCCCCc1cc(O)c2c(c1)OC(C)(C)c1ccc(C)cc1-2
2. C=C(C)[C@@H]1CCC(C)=C[C@H]1c1c(O)cc(CCCCC)c(C(=O)O)c1O

2.73
1.76
